- Experimental System: T1, OCT2 DBD (POU domain) (Homo sapiens, UniProt P09086 195-357)
- T1 sequence: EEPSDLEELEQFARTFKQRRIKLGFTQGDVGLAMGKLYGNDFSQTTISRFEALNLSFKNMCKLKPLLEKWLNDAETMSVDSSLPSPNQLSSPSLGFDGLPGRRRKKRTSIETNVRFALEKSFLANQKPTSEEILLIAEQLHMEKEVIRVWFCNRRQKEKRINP
- Test Protocol: fluorescence anisotropy; 0.20 M Na+, 1 U poly[d(I-C)]; FP: 5 nM probe, 10 mM Bis-Tris pH 6.5, 0.01% BSA, 0.15-0.35 M NaCl, 25 C overnight, Hill fit with nH = 2 (macroscopic KD of dimer); EMSA: 10 nM DNA, PBS, 25 C o
- Condition Set: protein: recombinant; tags: N-terminal His6 removed by thrombin; chain copies: 2; label: 5'-HEX; blunt; self-complementary, 2 copies of the strand
Metric Name: pKd
Note on units: pKd is unitless, being -log10 of a concentration expressed in mol/L.

Ask: Given MORE 22-bp, HEX-labelled (dsDNA) DNA 1: TCCTCATGCATATGCATGAGGA DNA 2: TCCTCATGCATATGCATGAGGA , respond with its pKd.
Reply: 7.80
